Target: Class 1 phosphodiesterase PDEB1 (Trypanosoma brucei, UniProt Q8WQX9)
Sequence (Q8WQX9 whole entry): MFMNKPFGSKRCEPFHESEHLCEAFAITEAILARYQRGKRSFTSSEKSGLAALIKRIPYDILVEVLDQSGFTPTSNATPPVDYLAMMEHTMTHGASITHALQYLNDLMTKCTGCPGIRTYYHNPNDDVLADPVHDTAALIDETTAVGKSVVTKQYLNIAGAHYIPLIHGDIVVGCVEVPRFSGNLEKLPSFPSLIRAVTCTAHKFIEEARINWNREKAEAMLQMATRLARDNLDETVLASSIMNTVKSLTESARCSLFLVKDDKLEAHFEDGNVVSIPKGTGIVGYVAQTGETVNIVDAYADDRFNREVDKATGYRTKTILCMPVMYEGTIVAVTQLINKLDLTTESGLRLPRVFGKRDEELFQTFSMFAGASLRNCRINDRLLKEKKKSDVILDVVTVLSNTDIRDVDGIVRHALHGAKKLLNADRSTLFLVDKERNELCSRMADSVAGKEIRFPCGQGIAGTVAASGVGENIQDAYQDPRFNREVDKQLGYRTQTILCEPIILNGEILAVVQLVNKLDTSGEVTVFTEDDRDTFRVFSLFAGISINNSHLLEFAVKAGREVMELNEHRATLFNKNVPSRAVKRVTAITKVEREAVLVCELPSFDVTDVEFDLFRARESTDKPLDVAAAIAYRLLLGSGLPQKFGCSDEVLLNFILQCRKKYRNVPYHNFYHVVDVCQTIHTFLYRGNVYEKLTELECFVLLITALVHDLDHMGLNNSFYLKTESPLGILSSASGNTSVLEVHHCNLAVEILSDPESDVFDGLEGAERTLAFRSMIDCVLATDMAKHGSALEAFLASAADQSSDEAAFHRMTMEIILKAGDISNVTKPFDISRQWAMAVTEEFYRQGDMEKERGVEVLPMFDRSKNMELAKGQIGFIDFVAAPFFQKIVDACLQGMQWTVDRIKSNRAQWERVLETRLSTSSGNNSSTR
We begin with a simple list: items and their reported IC50.

| smilesNotation | IC50 |
| --- | --- |
| O=C(CCc1nc2ccccc2n(CCc2ccccc2)c1=O)N1CCCCC1 | 54 µM |
| CCCn1c(=O)n(C)c(=O)c2c(SCC(=O)c3ccc(Cl)cc3)nc(CC(C)C)nc21 | 10 µM |
